Overview of recorded Ineffective for various compounds
# Tested on: alopecia in mice
# ASSAY_COMMENT: Animal experiment: therapeutic effect on alopecia in bilaterally ovariectomized mice after oral administration
# Format: in vivo
# RECORDED_CONDITIONS: number of mice of 10 per group; ovariectomized female mice, oral 10 mg/kg/day, 4 weeks; no difference from the model group

SMI	Ineffective
CCOC(=O)c1sc(NC(=O)/C(=N/Nc2c(C#N)cccc2C(=O)O)C(C)=O)nc1C	1
CC(=O)/C(=N\Nc1ccccc1C(=O)O)C(=O)Nc1ccccc1	0
CC(=O)/C(=N\Nc1ccccc1C(=O)O)C(=O)Nc1cccc(O)n1	3
CCOC(=O)c1sc(NC(=O)/C(=N/Nc2ccccc2C(=O)OC)C(C)=O)nc1C	0
CC(=O)/C(=N\Nc1ccccc1C(=O)O)C(=O)N1CCOCC1	0
CCOC(=O)c1sc(NC(=O)/C(=N/Nc2ccc(F)cc2C(=O)O)C(C)=O)nc1C	5
